- testedOn: Retinaldehyde dehydrogenase 3 (Homo sapiens)
- assayText: qHTS for Inhibitors of the Aldehyde Dehydrogenase Family (ALDH1A3) Validation screen (AID 2061312); further: nearly all actives have a fitted effect of over 45% in size; further: potency means the concentration at half of the fitted maximal effect
- statedConditions: ALDH1A3 enzyme inhibition qHTS validation, fluorescence; series mostly up to 84.7 µM
Inconclusive results are not listed. Active and inactive are the calls of the source. The call rests on the fitted dose curve; in most records, active means well fitted inhibition curve with a large enough effect; inconclusive means small, poorly fitted or top-dose-only effect; inactive means no such curve, though single readings can be large or run the other way.
recordedEndpoint: Potency

Some molecules with known Potency results, for comparison:
• CC[C@H]1OC(=O)C[C@@H](O)[C@H](C)[C@@H](O[C@@H]2O[C@H](C)[C@@H](O)[C@H](N(C)C)[C@H]2O)[C@@H](CCN2C[C@H](C)C[C@H](C)C2)C[C@@H](C)C(=O)/C=C/C(C)=C/[C@@H]1CO[C@@H]1O[C@H](C)[C@@H](O)[C@@H](OC)[C@H]1OC = inactive
• CNC(=O)c1cccc(-c2ccc3c(N4CCOC[C@@H]4C)nc(N4CCOC[C@@H]4C)nc3n2)c1 = inactive
• CC1(C)CCC(NC(=O)[C@@H](N)CCC(=O)O)CC1 = inactive
• Brc1cc2c(cc1[C@H]1Nc3ccccc3[C@H]3C=CC[C@H]31)OCO2 = inactive
• N=S(=O)(O)Cc1noc2ccccc12 = inactive
• O=c1[nH]c2cc(Cl)ccc2c(O)c1-c1ccc(Oc2ccccc2)cc1 = inactive
• C[C@@H]1O[C@@H](O[C@H]2[C@H](Oc3cc(O)c(C(=O)CCc4ccc(O)cc4)c(O)c3)O[C@H](CO)[C@@H](O)[C@@H]2O)[C@H](O)[C@H](O)[C@H]1O = inactive

Here is the next item to consider.
Req: Tell me its Potency given `CCCN1CCC=C(c2cc(-c3ccc(C)cc3)no2)C1` as the entry.
Resp: 25.1 µM (active)

The measurements presented in this section are drawn from PubChem BioAssay (NCATS).
